assay: Pharmacokinetic study in rats (plasma, LC-MS/MS, NCA); settings: male, Sprague-Dawley, rat, plasma, iv, 1 mg/kg
Value Type: AUC(0-inf) (ng·h/mL)
Please reply with the bare figure in ng·h/mL and do not write the unit itself.

The value of AUC(0-inf) measured for the molecule CC(=O)Nc1ccc(NC(=O)c2ccc(C(C)=O)o2)cc1 [Compound 25a] turned out to be 503

----------
assay: Plasma protein binding by equilibrium dialysis, human plasma; type: in vitro ADME; details: human, plasma, human plasma, 500 ng/mL
Value Type: fraction unbound at 5 h, 500 ng/mL
// print number alone

The value of fraction unbound at 5 h, 500 ng/mL measured for the compound CC(=O)Nc1ccc(NC(=O)c2ccc(C(C)=O)o2)cc1 [Compound 25a] turned out to be 0.612
